target: Muscarinic acetylcholine receptor M5 (Homo sapiens) (UniProt P08912); test: human M5 muscarinic receptor antagonists, primary screen, CHO cells, Fluo-8 calcium fluorescence (AID 624040); conditions: CHO-hM5 cells, ACh EC80, at 3 µM;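 also: 0% = acetylcholine EC80 with DMSO and 100% = DMSO without agonist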
Sequence (P08912 whole entry, looked up): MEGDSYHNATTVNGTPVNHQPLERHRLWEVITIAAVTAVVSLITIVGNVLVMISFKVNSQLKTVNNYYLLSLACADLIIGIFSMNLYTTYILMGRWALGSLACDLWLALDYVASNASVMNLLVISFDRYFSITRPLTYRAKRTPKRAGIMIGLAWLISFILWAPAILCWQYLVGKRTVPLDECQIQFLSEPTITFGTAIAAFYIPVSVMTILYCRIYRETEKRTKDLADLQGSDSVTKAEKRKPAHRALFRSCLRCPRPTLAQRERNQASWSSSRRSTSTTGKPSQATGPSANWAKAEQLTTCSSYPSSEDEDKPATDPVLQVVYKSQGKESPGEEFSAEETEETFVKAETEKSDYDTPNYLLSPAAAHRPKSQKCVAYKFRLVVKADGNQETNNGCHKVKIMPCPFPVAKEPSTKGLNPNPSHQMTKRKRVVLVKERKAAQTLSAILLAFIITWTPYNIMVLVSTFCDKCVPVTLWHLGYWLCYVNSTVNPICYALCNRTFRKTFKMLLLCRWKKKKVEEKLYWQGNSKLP
Among all 360,000 compounds or so, about 2,100 (0.58%) were called active.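 The calls were made as follows: active = inhibition above a per-plate cutoff, the mean of that plate's test compounds plus 3 SD (cut at about 27% in these data); inactive = the rest.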 The list comes from a sample in which actives are over-represented; it also holds close analogues and randomly drawn compounds.
Outcomes you can answer with include only these: yes (1) for active, no (0) for inactive

Before answering, review these 3 worked examples.
[[record]]
molecule = "CCOc1ccc(N2C(=O)CC(N(CCc3ccc(OC)c(OC)c3)C(=S)Nc3ccccc3)C2=O)cc1 (stereo not given)"
targetorsystem = "Muscarinic acetylcholine receptor M5 (Homo sapiens) (UniProt P08912)"
assignedcategory = "yes (1)"

[[record]]
molecule = "Cc1ccc(C(=O)N2CC(=O)Nc3ccc(F)cc3C2c2ccc(F)cc2)cc1 (stereo not given)"
targetorsystem = "Muscarinic acetylcholine receptor M5 (Homo sapiens) (UniProt P08912)"
assignedcategory = "no (0)"

[[record]]
molecule = "CN(C)c1ccc(NC(=S)N(CCc2ccccc2)C2CC(=O)N(c3c(Cl)cccc3Cl)C2=O)cc1 (stereo not given)"
targetorsystem = "Muscarinic acetylcholine receptor M5 (Homo sapiens) (UniProt P08912)"
assignedcategory = "no (0)"


Request: Identify the outcome logged in this assay for the molecule shown: O=C(O)CCC(=O)Nc1ccc(OCC2CCCO2)cc1 (stereo not given)
Response: no (0)

Request: Identify the outcome logged in this assay for the molecule shown: CCN1CCC(O)(/C=C/c2ccc(C)cc2)C(C(=O)/C=C/c2ccc(C)cc2)C1 (stereo not given)
Response: no (0)

###

target: Muscarinic acetylcholine receptor M5 (Homo sapiens) (UniProt P08912); experiment: human M5 muscarinic receptor antagonists, primary screen, CHO cells, Fluo-8 calcium fluorescence (AID 624040); conditions: CHO-hM5 cells, ACh EC80, at 3 µM, stronger effect = higher value;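 also: 0% = acetylcholine EC80 with DMSO and 100% = DMSO without agonist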
Among all 360,000 compounds or so, about 2,100 (0.58%) were called active. The sample as a whole holds a higher share of actives than the screen did.
readoutKind: inhibition (%)
Give the value, in units of %, as a plain number.

According to the records, this compound Cc1nc(C)c(C(=O)N(c2ccc(C)c(C)c2)C(C(=O)NCc2ccco2)c2ccccc2)s1 (centres undefined) displays inhibition of 2.62

According to the records, this compound `O=C(CCc1ccc(S(=O)(=O)N2CCOCC2)cc1)NN=C1CCCCCCC1` displays inhibition of -2.08

According to the records, this compound `CN1CCN(C(=O)C2=C[C@H](c3ccc4c(c3)OCO4)C[C@H](OCc3ccc(CO)cc3)O2)CC1` displays inhibition of 3.48

According to the records, this compound `COC(=O)[C@]12CCCCC=C1N(CCC1=CCCCC1)C(=O)[C@H](CC(=O)N1CCSCC1)C2` displays inhibition of 1.29

According to the records, this compound `CC1(C)C=C2[C@H]3CC[C@@H]4[C@@]5(C)CCC(=O)C(C)(C)[C@@H]5CC[C@@]4(C)[C@]3(C)CC[C@@]2(C(=O)O)CC1` displays inhibition of 0.2

According to the records, this compound `COC(=O)C1=C(C)N(c2ccc(C)cc2)/C(=C/c2ccc(O)cc2)C1=O` displays inhibition of 3.87

According to the records, this compound `O=C(NC1=CC(=O)c2ccccc2C1=O)c1ccccc1` displays inhibition of 36.2

According to the records, this compound C[C@@H]1CC[C@@]2(OC1)O[C@H]1C[C@H]3[C@@H]4CC=C5C[C@@H](O)[C@H](O)C[C@]5(C)C4CC[C@]3(C)[C@H]1[C@@H]2C (some centres undefined) displays inhibition of -3.19

According to the records, this compound `CN(C)C(=O)c1ccc(NC(=O)c2ccccc2-c2ccccc2)cc1` displays inhibition of 12.5
